Reported binding response of second antibody (nm) values for the following binders.
Biological target: T1, human GFRα3 expressed with a C-terminal myc-myc-hexahistidine tag (human, UniProt O60609 32-374, biotinylated (sites not given) in ELISA format 2 and in the Octet cross-competition; not in SPR)
T1 construct: also called hGFRα3-mmh; hGFRα3-mmH
T1 sequence (O60609 other isoform, or with tags, fused parts or gaps limits assumed): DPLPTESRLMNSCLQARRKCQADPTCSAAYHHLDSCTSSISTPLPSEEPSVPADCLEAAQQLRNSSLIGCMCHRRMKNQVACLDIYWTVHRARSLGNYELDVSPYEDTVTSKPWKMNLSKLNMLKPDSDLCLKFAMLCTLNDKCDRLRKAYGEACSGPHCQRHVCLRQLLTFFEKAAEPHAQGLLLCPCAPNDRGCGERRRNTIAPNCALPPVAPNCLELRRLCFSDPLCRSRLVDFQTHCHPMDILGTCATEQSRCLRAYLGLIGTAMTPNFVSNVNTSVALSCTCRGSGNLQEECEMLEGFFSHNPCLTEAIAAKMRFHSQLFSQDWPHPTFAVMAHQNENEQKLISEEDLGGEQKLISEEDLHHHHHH
Test: Octet cross-competition; biotin-hGFRα3-mmH pre-saturated with first antibody H4H2294S
Write down the numeric answer in nm and omit the unit.

# binder, binding response of second antibody (nm)
measured = [
    ("H4H2291S (antibody, human IgG4, V domains shown, human IgG4 Fc (H4H)) VH: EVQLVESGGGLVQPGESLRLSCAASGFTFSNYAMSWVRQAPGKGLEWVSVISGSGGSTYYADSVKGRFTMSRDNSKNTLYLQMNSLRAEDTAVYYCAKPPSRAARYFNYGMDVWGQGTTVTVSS VL: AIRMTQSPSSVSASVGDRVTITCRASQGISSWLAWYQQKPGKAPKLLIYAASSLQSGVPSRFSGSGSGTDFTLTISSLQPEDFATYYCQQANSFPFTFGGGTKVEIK", 0.12),
    ("H4H2292S (antibody, human IgG4, V domains shown, human IgG4 Fc (H4H)) VH: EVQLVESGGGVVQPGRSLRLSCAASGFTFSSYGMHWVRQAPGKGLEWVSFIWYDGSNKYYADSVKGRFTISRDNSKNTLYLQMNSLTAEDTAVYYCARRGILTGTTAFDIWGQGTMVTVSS VL: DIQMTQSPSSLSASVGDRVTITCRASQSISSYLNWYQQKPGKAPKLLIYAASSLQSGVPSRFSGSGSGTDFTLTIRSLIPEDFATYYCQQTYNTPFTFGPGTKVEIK", 1.92),
]

Continue with the binder presented below.
What the record says about H4H2243N2 (antibody, human IgG4, V domains shown, human IgG4 Fc (H4H)) VH: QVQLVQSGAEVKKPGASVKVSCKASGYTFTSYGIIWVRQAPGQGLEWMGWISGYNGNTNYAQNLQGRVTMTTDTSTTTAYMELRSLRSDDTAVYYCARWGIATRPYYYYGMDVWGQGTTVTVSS VL: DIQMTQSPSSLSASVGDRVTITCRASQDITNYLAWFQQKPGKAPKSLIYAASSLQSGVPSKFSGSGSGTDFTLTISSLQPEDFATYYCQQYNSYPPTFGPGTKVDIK : binding response of second antibody (nm) is 0.03
